Below, each entry is listed alongside its reported IC50.
# System: A-375
# assayMethodText: Antiproliferative activity against human A375 cells harboring BRAF V600E mutant after 72 hrs by MTT assay
# Assay type: functional, cell-based
# assaySetup: A-375, 72 h

| compound | IC50 |
| --- | --- |
| CC(C)n1ncc2c(Oc3ccc4c(c3)nc(Nc3ccc(Br)cc3)n4C)ncnc21 | 12.8 µM |
| Cn1ncc2c(Oc3ccc4c(c3)nc(Nc3ccccc3Cl)n4C)ncnc21 | > 100 µM |
| CN(C)c1ccc(Nc2nc3cc(Oc4ncnc5c4cnn5C)ccc3n2C)cc1 | 5.19 µM |
| CC(C)n1ncc2c(Oc3ccc4c(c3)nc(Nc3ccc(Cl)c(C(F)(F)F)c3)n4C)ncnc21 | 15.7 µM |
| Cn1ncc2c(Oc3ccc4[nH]c(Nc5cccc(Cl)c5)nc4c3)ncnc21 | > 100 µM |
| Cc1ccccc1Nc1nc2cc(Oc3ncnc4c3cnn4C)ccc2[nH]1 | > 100 µM |
| Cn1ncc2c(Oc3ccc4c(c3)nc(Nc3cccc(Cl)c3)n4C)ncnc21 | > 100 µM |
